# maps each entry to its RP-LC retention time
experiment summary: gradient 5% acetonitrile 3 min, to 50% in 2 min, to 85% in 15 min, held 3 min, 100 µL/min
condition description: column: Zorbax Extend-C18 2.1 x 50 mm; eluents: water / acetonitrile, 0.1% formic acid
A complete answer gives the number followed by the unit.

>>> df
                                   compound  result
0  O=C(c1ccco1)N1CCCC1c1nc(-c2ccccc2)no1 (stereo not given)   853 s
1         CCCC(=O)N1CCCn2nc(-c3ccncc3)cc2C1   577 s
2  Cc1ccc(-c2nnc(-c3cccc(S(=O)(=O)N4CCN(C)CC4)c3)o2)cc1   679 s
3  Cc1nc(N2CCCC(C(=O)NCCc3ccc(S(N)(=O)=O)cc3)C2)c2c(C)c(C)oc2n1 (stereo not given)   680 s

Q: Would you mind telling me what RP-LC retention time value was observed for CCCCn1nc(-c2nc(-c3ccc(F)cc3)no2)ccc1=O ?
Result: 1100 s

Q: RP-LC retention time lookup needed for CCC(=O)N(CCCOC)CC(=O)N1CCc2sccc2C1COc1ccccc1F (stereo not given) , thanks.
Result: 912 s

Q: Fill blank: measured RP-LC retention time of the compound CSc1ccc(CNC(=O)C2CCN(c3cc(=O)n(C)c(=O)n3C)CC2)cc1 is ____.
Result: 694 s

Q: Can you look up the measured RP-LC retention time of Cc1ccc(NC(=O)Cn2c(=O)n(-c3ccc(F)cc3)c(=O)c3c2cc(C)n3C)cc1C for me?
Result: 888 s

Q: So what does the record say about RP-LC retention time for CCOc1ccc(-c2nc(NC(=O)Cc3csc(C)n3)sc2C)cc1 ?
Result: 938 s
